- Tgt: UDP-galactose 4-epimerase (Trypanosoma brucei)
- Sequence (Q8T8E9 whole entry): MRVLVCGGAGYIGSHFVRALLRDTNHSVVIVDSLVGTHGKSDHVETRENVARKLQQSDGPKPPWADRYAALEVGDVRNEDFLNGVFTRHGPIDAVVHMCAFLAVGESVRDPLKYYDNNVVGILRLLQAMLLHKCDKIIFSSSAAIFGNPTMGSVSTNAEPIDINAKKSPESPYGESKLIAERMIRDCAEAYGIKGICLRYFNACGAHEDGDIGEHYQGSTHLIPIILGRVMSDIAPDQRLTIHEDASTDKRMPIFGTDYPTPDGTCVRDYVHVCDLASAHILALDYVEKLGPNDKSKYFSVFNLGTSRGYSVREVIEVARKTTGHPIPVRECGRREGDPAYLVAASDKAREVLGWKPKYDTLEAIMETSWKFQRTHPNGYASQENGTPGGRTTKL
Metric Name: IC50 (µM)

> print(dat)
                                    compound  metric.name  unit.of.measurement  quantitative.result
 1  O=C(O)c1ccccc1-c1ccccc1C(=O)Nc1ccc2c(c1)Cc1cc(NC(=O)c3ccccc3-c3ccccc3C(=O)O)ccc1-2         IC50                   µM                  0.9
 2  O=C(O)c1ccccc1-c1ccccc1C(=O)Nc1ccc2c(c1)Cc1ccccc1-2         IC50                   µM                  4.6
 3  O=C(O)c1ccccc1-c1ccccc1C(=O)Nc1cc2c3ccccc3ccc2c2ccccc12         IC50                   µM                  2.6
 4  O=C(O)c1ccccc1-c1ccccc1C(=O)Nc1cccc2c1-c1ccccc1C2         IC50                   µM                    8
 5  O=C(O)c1ccccc1-c1ccccc1C(=O)Nc1ccc2c(c1)C(O)c1ccccc1-2 (configuration not stated)         IC50                   µM                  6.8
 6  O=C(O)c1ccccc1-c1ccccc1C(=O)Nc1ccc2c(c1)Cc1cc(F)ccc1-2         IC50                   µM                  3.8
 7  O=C(O)c1ccccc1-c1ccccc1C(=O)Nc1ccc2c(c1)C(=O)c1ccccc1-2         IC50                   µM                  2.8
 8  O=C(O)c1ccccc1-c1ccccc1C(=O)Nc1ccc2c(c1)-c1ccccc1C2         IC50                   µM                  4.2
 9  O=C(O)c1cc(Cl)ccc1-c1ccc(Cl)cc1C(=O)NC1=CC2=C(CC1)c1c(Cl)cc(Cl)cc1C2         IC50                   µM                  1.8
10  O=C(O)c1ccccc1-c1ccccc1C(=O)Nc1ccc2c(c1)nc(O)c1ccccc12         IC50                   µM                  3.6
11  COC1C(OC(=O)c2ccc(C)[nH]2)C(O)C(Oc2ccc3c(O)c(NC(=O)c4ccc(O)c(CC=C(C)C)c4)c(=O)oc3c2Cl)OC1(C)C (configuration not stated)         IC50                   µM                    5
12  CCn1c2ccccc2c2cc(NC(=O)c3ccccc3-c3ccccc3C(=O)O)ccc21         IC50                   µM                  5.6
